Entry source: the RNAGym collection of RNA variant scans (doi:10.7554/elife.80360)

B1: CPEB3 Ribozyme (parent)
chain: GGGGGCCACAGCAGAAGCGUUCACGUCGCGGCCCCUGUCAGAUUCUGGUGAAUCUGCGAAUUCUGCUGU

variants of: B1; experiment: self-cleavage, relative activity (ratio to wild type); higher = more cleavage; co-transcriptional
RECORDED ENDPOINT: self-cleavage
# output: bare number, no unit

Worked cases, self-cleavage given:
{"VARIANT SPEC": "U43G C45A", "self-cleavage": 0.886}
{"VARIANT SPEC": "C29G C63A", "self-cleavage": 0.23}
{"VARIANT SPEC": "C35G U64C", "self-cleavage": 0.274}

**Query** Check the records and state self-cleavage for A16U C33G
**Result** 0.319

**Query** Check the records and state self-cleavage for C35A G56U
**Result** 0.223

**Query** Check the records and state self-cleavage for G30U G31C
**Result** 0.149

**Query** Check the records and state self-cleavage for U61C U62C
**Result** 0.479

**Query** Check the records and state self-cleavage for G19A G28C
**Result** 0.216

**Query** Check the records and state self-cleavage for G3U C6U
**Result** 0.0423

**Query** Check the records and state self-cleavage for U46C U55A
**Result** 0.773

**Query** Check the records and state self-cleavage for U44G U53A
**Result** 0.755

**Query** Check the records and state self-cleavage for U20C U21A
**Result** 0.208

**Query** Check the records and state self-cleavage for G17A U26G
**Result** 0.413

**Query** Check the records and state self-cleavage for A60U U64C
**Result** 0.445

**Query** Check the records and state self-cleavage for G17A C66U
**Result** 0.347

**Query** Check the records and state self-cleavage for G3U A60C
**Result** 0.0666

**Query** Check the records and state self-cleavage for G5U U36A
**Result** 0.0704

**Query** Check the records and state self-cleavage for G2U C7A
**Result** 0.0706

**Query** Check the records and state self-cleavage for G25A G37C
**Result** 0.119
